Overview of reported shrunken log2 fold change across a group of sequences:
system: Escherichia coli TOP10; experiment: shrunken log2 fold change of peptide-encoding DNA abundance (4.5 h post-induction vs induction); higher = less antimicrobial activity (less host growth inhibition); settings: time post-induction: 4.5 h; library: site-saturation at positions 5, 18, 19, 20

>  <ORDERED_RESIDUES>
RRIRQRPPRLPRPRPRPAYFPRP

>  <shrunken log2 fold change>
0.191

$$$$
>  <ORDERED_RESIDUES>
RRIRKRPPRLPRPRPRPARHPRP

>  <shrunken log2 fold change>
1.9

$$$$
>  <ORDERED_RESIDUES>
RRIRHRPPRLPRPRPRPWRMPRP

>  <shrunken log2 fold change>
0.0309

$$$$
>  <ORDERED_RESIDUES>
RRIRYRPPRLPRPRPRPSTIPRP

>  <shrunken log2 fold change>
-0.324

$$$$
>  <ORDERED_RESIDUES>
RRIRKRPPRLPRPRPRPAQGPRP

>  <shrunken log2 fold change>
1.39

$$$$
>  <ORDERED_RESIDUES>
RRIRWRPPRLPRPRPRPCHQPRP

>  <shrunken log2 fold change>
-0.0867

$$$$
>  <ORDERED_RESIDUES>
RRIRGRPPRLPRPRPRPQWMPRP

>  <shrunken log2 fold change>
0.115

$$$$
>  <ORDERED_RESIDUES>
RRIRCRPPRLPRPRPRPGCTPRP

>  <shrunken log2 fold change>
-0.279

$$$$
>  <ORDERED_RESIDUES>
RRIRLRPPRLPRPRPRPSYFPRP

>  <shrunken log2 fold change>
-0.452

$$$$
>  <ORDERED_RESIDUES>
RRIRTRPPRLPRPRPRPAMEPRP

>  <shrunken log2 fold change>
-0.0176

$$$$
>  <ORDERED_RESIDUES>
RRIRNRPPRLPRPRPRPMYAPRP

>  <shrunken log2 fold change>
-0.192

$$$$

* * *

test system: Escherichia coli TOP10; test: shrunken log2 fold change of peptide-encoding DNA abundance (4.5 h post-induction vs induction); higher = less antimicrobial activity (less host growth inhibition); settings: time post-induction: 4.5 h; library: site-saturation at positions 5, 18, 19, 20
Answer NOT MET if shrunken log2 fold change is under 0.1, and MET if it is 0.1 or more.

>  <ORDERED_RESIDUES>
RRIRTRPPRLPRPRPRPESIPRP

>  <TGT>
Escherichia coli TOP10

>  <LABEL>
NOT MET

$$$$
>  <ORDERED_RESIDUES>
RRIRQRPPRLPRPRPRPWVKPRP

>  <TGT>
Escherichia coli TOP10

>  <LABEL>
NOT MET

$$$$
>  <ORDERED_RESIDUES>
RRIRQRPPRLPRPRPRPPPEPRP

>  <TGT>
Escherichia coli TOP10

>  <LABEL>
MET

$$$$
>  <ORDERED_RESIDUES>
RRIRCRPPRLPRPRPRPSDKPRP

>  <TGT>
Escherichia coli TOP10

>  <LABEL>
NOT MET

$$$$
>  <ORDERED_RESIDUES>
RRIRDRPPRLPRPRPRPFMPPRP

>  <TGT>
Escherichia coli TOP10

>  <LABEL>
NOT MET

$$$$
>  <ORDERED_RESIDUES>
RRIRARPPRLPRPRPRPILYPRP

>  <TGT>
Escherichia coli TOP10

>  <LABEL>
NOT MET

$$$$
>  <ORDERED_RESIDUES>
RRIRKRPPRLPRPRPRPRTQPRP

>  <TGT>
Escherichia coli TOP10

>  <LABEL>
MET

$$$$
>  <ORDERED_RESIDUES>
RRIRFRPPRLPRPRPRPDQSPRP

>  <TGT>
Escherichia coli TOP10

>  <LABEL>
NOT MET

$$$$
>  <ORDERED_RESIDUES>
RRIRNRPPRLPRPRPRPKVMPRP

>  <TGT>
Escherichia coli TOP10

>  <LABEL>
NOT MET

$$$$
>  <ORDERED_RESIDUES>
RRIRARPPRLPRPRPRPACLPRP

>  <TGT>
Escherichia coli TOP10

>  <LABEL>
MET

$$$$
>  <ORDERED_RESIDUES>
RRIRRRPPRLPRPRPRPVTSPRP

>  <TGT>
Escherichia coli TOP10

>  <LABEL>
NOT MET

$$$$
>  <ORDERED_RESIDUES>
RRIRIRPPRLPRPRPRPMQIPRP

>  <TGT>
Escherichia coli TOP10

>  <LABEL>
NOT MET

$$$$
>  <ORDERED_RESIDUES>
RRIRFRPPRLPRPRPRPTCSPRP

>  <TGT>
Escherichia coli TOP10

>  <LABEL>
NOT MET

$$$$
>  <ORDERED_RESIDUES>
RRIRARPPRLPRPRPRPNIFPRP

>  <TGT>
Escherichia coli TOP10

>  <LABEL>
NOT MET

$$$$
>  <ORDERED_RESIDUES>
RRIRGRPPRLPRPRPRPKGYPRP

>  <TGT>
Escherichia coli TOP10

>  <LABEL>
MET

$$$$
>  <ORDERED_RESIDUES>
RRIRIRPPRLPRPRPRPILKPRP

>  <TGT>
Escherichia coli TOP10

>  <LABEL>
MET

$$$$
>  <ORDERED_RESIDUES>
RRIRSRPPRLPRPRPRPLWRPRP

>  <TGT>
Escherichia coli TOP10

>  <LABEL>
MET

$$$$
>  <ORDERED_RESIDUES>
RRIRSRPPRLPRPRPRPNPAPRP

>  <TGT>
Escherichia coli TOP10

>  <LABEL>
NOT MET

$$$$
>  <ORDERED_RESIDUES>
RRIRVRPPRLPRPRPRPCIKPRP

>  <TGT>
Escherichia coli TOP10

>  <LABEL>
NOT MET

$$$$
>  <ORDERED_RESIDUES>
RRIRERPPRLPRPRPRPATAPRP

>  <TGT>
Escherichia coli TOP10

>  <LABEL>
MET

$$$$
>  <ORDERED_RESIDUES>
RRIRFRPPRLPRPRPRPGFQPRP

>  <TGT>
Escherichia coli TOP10

>  <LABEL>
NOT MET

$$$$
>  <ORDERED_RESIDUES>
RRIRPRPPRLPRPRPRPHQLPRP

>  <TGT>
Escherichia coli TOP10

>  <LABEL>
NOT MET

$$$$
>  <ORDERED_RESIDUES>
RRIRGRPPRLPRPRPRPIEPPRP

>  <TGT>
Escherichia coli TOP10

>  <LABEL>
MET

$$$$
>  <ORDERED_RESIDUES>
RRIRFRPPRLPRPRPRPQLSPRP

>  <TGT>
Escherichia coli TOP10

>  <LABEL>
NOT MET

$$$$
>  <ORDERED_RESIDUES>
RRIRARPPRLPRPRPRPLLQPRP

>  <TGT>
Escherichia coli TOP10

>  <LABEL>
MET

$$$$
>  <ORDERED_RESIDUES>
RRIRQRPPRLPRPRPRPIQHPRP

>  <TGT>
Escherichia coli TOP10

>  <LABEL>
MET

$$$$
>  <ORDERED_RESIDUES>
RRIRCRPPRLPRPRPRPVYGPRP

>  <TGT>
Escherichia coli TOP10

>  <LABEL>
NOT MET

$$$$
>  <ORDERED_RESIDUES>
RRIRLRPPRLPRPRPRPQPQPRP

>  <TGT>
Escherichia coli TOP10

>  <LABEL>
MET

$$$$
>  <ORDERED_RESIDUES>
RRIRTRPPRLPRPRPRPRFSPRP

>  <TGT>
Escherichia coli TOP10

>  <LABEL>
NOT MET

$$$$
>  <ORDERED_RESIDUES>
RRIRFRPPRLPRPRPRPNAVPRP

>  <TGT>
Escherichia coli TOP10

>  <LABEL>
NOT MET

$$$$
>  <ORDERED_RESIDUES>
RRIRQRPPRLPRPRPRPCTEPRP

>  <TGT>
Escherichia coli TOP10;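 note: peptides expressed intracellularly from a pBAD plasmid library in pooled LB shake-flask culture, induced with 0.3% L-arabinose, DNA abundance read by NGS, three biological replicates, DESeq2 with apeglm shrinkage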

>  <LABEL>
NOT MET

$$$$
